- assayed-target: Human immunodeficiency virus type 1 integrase (Human immunodeficiency virus 1)
- measurement-description: Inhibition of 3' processing step useful in the integration of viral DNA into host cell DNA by inhibiting HIV integrase by compound
Measured Inhibitory activity, listed per entry.
Supply the numeric figure in µM, leaving out any unit text.

Here are 3 compounds together with their reported answers.
* Nc1ccn([C@H]2C[C@H](O)[C@@H](COP(=O)(O)O[C@H]3[C@H](n4cnc5c(N)ncnc54)CO[C@@H]3COP(=O)(O)O)O2)c(=O)n1 | 19
* Nc1ccn(C2CCC(COP(=O)(O)O)O2)c(=O)n1 (stereo unspecified) | 50
* Nc1ccn([C@H]2C[C@H](O)[C@@H](COP(=O)(O)O[C@H]3[C@H](n4cnc5c(N)ncnc54)CO[C@@H]3CO)O2)c(=O)n1 | 200

Continue with the compound presented below.
Enquiry: Item: `Nc1ccn([C@H]2C[C@H](O)[C@@H](COP(=O)(O)O[C@H]3C[C@H](n4cnc5c(N)ncnc54)O[C@@H]3COP(=O)(O)O)O2)c(=O)n1` Test system: Human immunodeficiency virus type 1 integrase (Human immunodeficiency virus 1) Read-out: Inhibitory activity Value: ?
Return: 6

----------
- assayed-target: Human immunodeficiency virus type 1 integrase (Human immunodeficiency virus 1) (UniProt Q7ZJM1)
- Sequence (Q7ZJM1 as listed by the source): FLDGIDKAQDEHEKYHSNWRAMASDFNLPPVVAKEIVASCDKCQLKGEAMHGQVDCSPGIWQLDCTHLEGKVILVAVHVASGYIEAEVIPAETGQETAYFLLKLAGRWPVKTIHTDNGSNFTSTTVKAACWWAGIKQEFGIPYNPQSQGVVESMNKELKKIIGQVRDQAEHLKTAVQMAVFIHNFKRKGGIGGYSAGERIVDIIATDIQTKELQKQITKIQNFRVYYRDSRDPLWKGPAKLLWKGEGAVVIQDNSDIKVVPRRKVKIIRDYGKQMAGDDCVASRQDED
- measurement-description: Inhibition of strand transfer step useful in the integration of viral DNA into host cell DNA by inhibiting HIV integrase by compound
outcome-measure: log10(Inhibitory activity) (log10 of the value in µM)
Heads up, the numbers here are log10 of Inhibitory activity in µM units.

Here are 4 molecules together with their reported answers.
• Cc1cn([C@H]2C[C@H](N=[N+]=[N-])[C@@H](COP(=O)(O)O)O2)c(=O)[nH]c1=O = 2.15
• Nc1ccn(C2CCC(COP(=O)(O)O)O2)c(=O)n1 (stereo unspecified) = 1.65
• Nc1ccn([C@H]2C[C@H](O)[C@@H](COP(=O)(O)O[C@H]3C[C@H](n4cnc5c(N)ncnc54)O[C@@H]3COP(=O)(O)O)O2)c(=O)n1 = 0.48
• Nc1ccn([C@H]2C[C@H](O)[C@@H](COP(=O)(O)O[C@H]3[C@H](n4cnc5c(N)ncnc54)CO[C@@H]3COP(=O)(O)O)O2)c(=O)n1 = 1.40

Enquiry: What does the record list as log10(Inhibitory activity) for `Nc1ccn([C@H]2C[C@H](O)[C@@H](COP(=O)(O)O[C@H]3[C@H](n4cnc5c(N)ncnc54)CO[C@@H]3CO)O2)c(=O)n1` ?
Return: 2.30
